# TARGET_UNDER_TEST: Epidermal growth factor receptor (Homo sapiens, UniProt P00533)
# Sequence (P00533 whole entry): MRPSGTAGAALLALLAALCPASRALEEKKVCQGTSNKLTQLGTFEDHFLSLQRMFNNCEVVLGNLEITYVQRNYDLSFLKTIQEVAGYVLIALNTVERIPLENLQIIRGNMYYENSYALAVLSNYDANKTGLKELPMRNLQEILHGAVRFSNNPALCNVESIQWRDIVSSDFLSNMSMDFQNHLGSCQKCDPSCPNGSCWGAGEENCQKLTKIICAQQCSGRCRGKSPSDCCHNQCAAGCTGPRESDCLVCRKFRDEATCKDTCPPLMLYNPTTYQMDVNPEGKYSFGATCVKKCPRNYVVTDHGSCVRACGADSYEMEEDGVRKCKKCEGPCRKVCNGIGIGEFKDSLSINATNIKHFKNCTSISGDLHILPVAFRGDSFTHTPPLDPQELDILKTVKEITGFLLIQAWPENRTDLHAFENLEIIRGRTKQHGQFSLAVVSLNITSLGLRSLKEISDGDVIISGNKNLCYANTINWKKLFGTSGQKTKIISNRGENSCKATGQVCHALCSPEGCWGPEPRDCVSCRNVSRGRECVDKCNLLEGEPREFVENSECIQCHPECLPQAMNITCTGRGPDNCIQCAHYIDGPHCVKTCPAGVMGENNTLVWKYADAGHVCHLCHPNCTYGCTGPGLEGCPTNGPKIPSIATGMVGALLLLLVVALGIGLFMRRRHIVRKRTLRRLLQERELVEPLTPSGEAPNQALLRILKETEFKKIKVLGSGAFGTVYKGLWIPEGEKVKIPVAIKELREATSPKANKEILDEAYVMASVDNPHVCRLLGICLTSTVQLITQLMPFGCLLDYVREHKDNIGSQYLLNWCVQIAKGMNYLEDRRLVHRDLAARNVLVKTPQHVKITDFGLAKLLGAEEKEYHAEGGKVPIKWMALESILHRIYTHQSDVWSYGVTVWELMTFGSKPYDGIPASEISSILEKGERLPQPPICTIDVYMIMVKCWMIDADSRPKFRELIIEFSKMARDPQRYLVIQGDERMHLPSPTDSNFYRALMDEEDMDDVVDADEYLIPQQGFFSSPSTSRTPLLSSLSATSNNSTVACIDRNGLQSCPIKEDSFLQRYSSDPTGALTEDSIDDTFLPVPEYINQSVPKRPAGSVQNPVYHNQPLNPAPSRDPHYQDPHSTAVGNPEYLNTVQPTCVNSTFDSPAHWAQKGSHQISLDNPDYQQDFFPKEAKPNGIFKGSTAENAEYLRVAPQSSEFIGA
# METHOD: Inhibition of EGFR by HTRF assay
READOUT_TYPE: IC50

Below are worked cases with known answers.
{"columns": ["COMPOUND_STRUCTURE", "TARGET_UNDER_TEST", "READOUT_VALUE"],
 "data": [
  ["Cc1c(C(=O)NCCN2CCN(C)CC2)[nH]c2cnnc(Nc3ccc(OCc4cccc(F)c4)c(Cl)c3)c12", "Epidermal growth factor receptor (Homo sapiens, UniProt P00533)", "> 10 µM"],
  ["CCN(CC)CCNC(=O)c1cc2cnnc(Nc3ccc(OCc4cccc(F)c4)c(Cl)c3)c2[nH]1", "Epidermal growth factor receptor (Homo sapiens, UniProt P00533)", "> 10 µM"],
  ["CCN(CC)CCNC(=O)c1[nH]c2cnnc(Nc3ccc(OCc4cccc(F)c4)c(Cl)c3)c2c1C", "Epidermal growth factor receptor (Homo sapiens, UniProt P00533)", "1.28 µM"],
  ["CCOC(=O)c1[nH]c(C)c2cnnc(Nc3ccc(OCc4cccc(F)c4)c(Cl)c3)c12", "Epidermal growth factor receptor (Homo sapiens, UniProt P00533)", "> 10 µM"],
  ["Cc1c(C(=O)NCCN2CCOCC2)[nH]c2cnnc(Nc3ccc(OCc4cccc(F)c4)c(Cl)c3)c12", "Epidermal growth factor receptor (Homo sapiens, UniProt P00533)", "5 µM"],
  ["Cc1c(C(=O)NCCCN2CCN(C)CC2)[nH]c2cnnc(Nc3ccc(OCc4cccc(F)c4)c(Cl)c3)c12", "Epidermal growth factor receptor (Homo sapiens, UniProt P00533)", "> 10 µM"]
]}

For reference, reported IC50 for `O=C(NCCN1CCCC1)c1cc2cnnc(Nc3ccc(OCc4cccc(F)c4)c(Cl)c3)c2[nH]1` stands at > 10 µM

====

# TARGET_UNDER_TEST: Receptor tyrosine-protein kinase erbB-2 (Homo sapiens, UniProt P04626)
# Sequence (P04626 whole entry): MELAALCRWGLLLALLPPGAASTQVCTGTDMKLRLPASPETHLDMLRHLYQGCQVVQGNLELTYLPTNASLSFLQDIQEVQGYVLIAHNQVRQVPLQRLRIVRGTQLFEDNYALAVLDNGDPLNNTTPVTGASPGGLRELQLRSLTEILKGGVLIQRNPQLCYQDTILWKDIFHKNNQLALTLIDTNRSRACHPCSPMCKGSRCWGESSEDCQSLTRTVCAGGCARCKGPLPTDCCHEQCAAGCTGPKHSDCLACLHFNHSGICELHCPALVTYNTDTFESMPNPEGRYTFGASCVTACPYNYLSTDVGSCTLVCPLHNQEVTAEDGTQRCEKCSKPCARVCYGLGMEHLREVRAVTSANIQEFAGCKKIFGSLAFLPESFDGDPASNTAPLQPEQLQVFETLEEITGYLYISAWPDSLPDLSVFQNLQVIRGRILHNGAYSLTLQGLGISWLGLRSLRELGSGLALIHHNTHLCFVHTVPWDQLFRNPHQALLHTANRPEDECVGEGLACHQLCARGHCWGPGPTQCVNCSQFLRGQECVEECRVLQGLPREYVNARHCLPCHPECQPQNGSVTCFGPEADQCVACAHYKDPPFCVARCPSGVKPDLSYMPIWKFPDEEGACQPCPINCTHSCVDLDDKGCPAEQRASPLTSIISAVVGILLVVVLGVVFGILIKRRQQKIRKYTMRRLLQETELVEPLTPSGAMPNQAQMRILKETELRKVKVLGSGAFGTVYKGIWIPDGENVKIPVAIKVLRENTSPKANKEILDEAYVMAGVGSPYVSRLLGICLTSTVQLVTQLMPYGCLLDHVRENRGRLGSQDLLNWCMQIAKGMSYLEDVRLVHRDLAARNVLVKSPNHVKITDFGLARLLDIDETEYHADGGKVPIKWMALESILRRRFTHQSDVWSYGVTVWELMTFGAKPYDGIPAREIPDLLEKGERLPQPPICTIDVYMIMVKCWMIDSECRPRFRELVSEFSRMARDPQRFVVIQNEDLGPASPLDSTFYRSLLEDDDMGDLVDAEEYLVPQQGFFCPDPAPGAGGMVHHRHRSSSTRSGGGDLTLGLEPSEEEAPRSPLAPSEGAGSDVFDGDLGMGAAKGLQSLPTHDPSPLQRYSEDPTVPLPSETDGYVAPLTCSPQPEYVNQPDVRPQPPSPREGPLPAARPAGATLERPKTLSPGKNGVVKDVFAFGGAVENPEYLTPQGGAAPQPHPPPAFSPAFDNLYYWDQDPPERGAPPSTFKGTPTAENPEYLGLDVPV
# METHOD: Inhibition of HER2 in human SKBR3 cells by HTRF assay
READOUT_TYPE: IC50 (nM)

Below are worked cases with known answers.
{"columns": ["COMPOUND_STRUCTURE", "READOUT_TYPE", "READOUT_VALUE"],
 "data": [
  ["Cc1c(C(=O)NCCN2CCN(C)CC2)[nH]c2cnnc(Nc3ccc(OCc4cccc(F)c4)c(Cl)c3)c12", "IC50", 843],
  ["CCOC(=O)c1[nH]c(C)c2cnnc(Nc3ccc(OCc4cccc(F)c4)c(Cl)c3)c12", "IC50", 934]
]}

A = O=C(NCCN1CCCC1)c1cc2cnnc(Nc3ccc(OCc4cccc(F)c4)c(Cl)c3)c2[nH]1
B = CCN(CC)CCNC(=O)c1[nH]c2cnnc(Nc3ccc(OCc4cccc(F)c4)c(Cl)c3)c2c1C
C = Cc1c(C(=O)NCCCN2CCN(C)CC2)[nH]c2cnnc(Nc3ccc(OCc4cccc(F)c4)c(Cl)c3)c12
D = CCN(CC)CCNC(=O)c1cc2cnnc(Nc3ccc(OCc4cccc(F)c4)c(Cl)c3)c2[nH]1
Form: Sort by [IC50] Order [ ascending ] Rank them, then answer with their labels in that order. A, B, C, D
